This listing pairs compounds with measured pIC50.
target: UniProt:P08254
pIC50: −log10 of the molar value.

Record excerpt, results attached:
[
  {
    "COMPOUND": "CN1CC2(CC2)C[C@H](C(=O)NO)[C@H]1C(=O)N1CC=C(c2ccccc2)CC1",
    "pIC50": "< 6.00"
  },
  {
    "COMPOUND": "CCC(C)NC(=O)[C@@H]1[C@@H](C(=O)NO)CC2(CC2)CN1C (stereo partly drawn)",
    "pIC50": "< 6.00"
  }
]

// switching to the query compound
Request: I am curious: what pIC50 value has been reported for CN1CC2(CC2)C[C@H](C(=O)NO)[C@H]1C(=O)N1CCN(c2ccccc2)CC1 ?
Result: < 5.30

* * *

assay: AUC (0-24h) in murine at 10 mg/kg, po; type: ADME, organism-based; design: time < 24 hr, dose 10 mg/kg, route oral; settings: mouse, in vivo
QUANTITY_KIND: AUC(0-t) at 24 h (µM·h)

A = COC(=O)N1CC2(CC2)C[C@H](C(=O)NO)[C@H]1C(=O)N1CC=C(c2ccccc2)CC1
B = O=C(NO)[C@H]1CC2(CC2)CN[C@@H]1C(=O)N1CC=C(c2ccccc2)CC1
Request: Smaller AUC(0-t) at 24 h value, A vs B ? Select an item and report its label.
Result: B
(B: 0.35 µM·h, A: 3.9 µM·h)

* * *

target: 72 kDa type IV collagenase (Homo sapiens)
Sequence (P08253 whole entry): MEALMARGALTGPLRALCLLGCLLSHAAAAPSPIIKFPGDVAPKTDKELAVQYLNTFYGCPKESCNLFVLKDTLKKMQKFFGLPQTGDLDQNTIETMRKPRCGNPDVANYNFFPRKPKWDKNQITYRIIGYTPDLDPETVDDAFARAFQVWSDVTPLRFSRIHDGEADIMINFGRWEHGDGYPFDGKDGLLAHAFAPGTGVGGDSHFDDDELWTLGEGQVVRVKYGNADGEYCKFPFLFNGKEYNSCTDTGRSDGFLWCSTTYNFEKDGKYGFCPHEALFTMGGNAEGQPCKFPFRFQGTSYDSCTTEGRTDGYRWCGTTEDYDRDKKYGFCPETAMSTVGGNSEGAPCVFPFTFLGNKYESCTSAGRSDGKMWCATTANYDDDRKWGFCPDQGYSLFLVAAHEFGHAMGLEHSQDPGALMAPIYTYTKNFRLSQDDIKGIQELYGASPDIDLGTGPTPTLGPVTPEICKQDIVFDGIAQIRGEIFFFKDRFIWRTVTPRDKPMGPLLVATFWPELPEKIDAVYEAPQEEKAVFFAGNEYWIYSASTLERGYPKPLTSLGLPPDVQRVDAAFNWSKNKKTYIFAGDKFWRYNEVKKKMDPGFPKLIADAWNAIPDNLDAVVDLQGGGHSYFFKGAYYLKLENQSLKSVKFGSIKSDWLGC
QUANTITY_KIND: IC50

Record excerpt, results attached:
[
  {
    "CPD_SMILES": "Cc1cc([N+](=O)[O-])ccc1C1=CCN(C(=O)[C@H]2NCC3(CC3)C[C@@H]2C(=O)NO)CC1",
    "QUANTITY_KIND": "IC50",
    "RESULT": "> 5000 nM"
  },
  {
    "CPD_SMILES": "Cc1cc([N+](=O)[O-])ccc1N1CCN(C(=O)[C@H]2NCC3(CC3)C[C@@H]2C(=O)NO)CC1",
    "QUANTITY_KIND": "IC50",
    "RESULT": "> 1000 nM"
  }
]

// switching to the query compound
Request: // map O=C(NO)[C@H]1CC2(CC2)CN[C@@H]1C(=O)N1CCN(c2ccccc2)CC1 to recorded IC50 (system: 72 kDa type IV collagenase (Homo sapiens))
Result: 200 nM

* * *

target: Stromelysin-1 (Homo sapiens)
Sequence (P08254 whole entry): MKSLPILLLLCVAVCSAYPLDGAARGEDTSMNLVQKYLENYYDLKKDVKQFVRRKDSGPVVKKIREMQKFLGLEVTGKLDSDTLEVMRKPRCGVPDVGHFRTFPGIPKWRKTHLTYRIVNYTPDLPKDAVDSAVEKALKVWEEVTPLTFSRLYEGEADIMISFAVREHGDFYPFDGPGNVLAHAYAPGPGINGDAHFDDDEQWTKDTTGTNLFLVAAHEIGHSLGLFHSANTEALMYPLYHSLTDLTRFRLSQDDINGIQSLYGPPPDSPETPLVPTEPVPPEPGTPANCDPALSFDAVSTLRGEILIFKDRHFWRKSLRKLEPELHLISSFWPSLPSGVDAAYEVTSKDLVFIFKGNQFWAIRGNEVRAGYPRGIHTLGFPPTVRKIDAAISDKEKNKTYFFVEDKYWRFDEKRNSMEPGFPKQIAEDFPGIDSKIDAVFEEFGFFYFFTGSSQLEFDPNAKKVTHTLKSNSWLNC
pIC50: −log10 of the molar value.
QUANTITY_KIND: pIC50

P = O=C(NO)[C@H]1CC2(CC2)CN[C@@H]1C(=O)N1CC=C(c2ccccc2)C1
Q = O=C(NO)[C@H]1CC2(CC2)CN[C@@H]1C(=O)N1CC=C(c2ccccc2)CC1
Request: Smaller pIC50 value, P vs Q ? Select an item and report its label.
Result: Q
(Q: 5.92, P: 6.35)

* * *

assay: Clearance in murine; assay type: ADME, organism-based; details: mouse, in vivo
QUANTITY_KIND: clearance (mL/min/kg)

1 = COC(=O)N1CC2(CC2)C[C@H](C(=O)NO)[C@H]1C(=O)N1CC=C(c2ccccc2)CC1
2 = O=C(NO)[C@H]1CC2(CC2)CN[C@@H]1C(=O)N1CC=C(c2ccccc2)CC1
Request: Please state the entry with greater clearance among 1 and 2 . Select an item and report its label.
Result: 2
(2: 15 mL/min/kg, 1: 6.67 mL/min/kg)

* * *

Molecular target: Disintegrin and metalloproteinase domain-containing protein 10 (Homo sapiens)
Sequence (O14672 whole entry): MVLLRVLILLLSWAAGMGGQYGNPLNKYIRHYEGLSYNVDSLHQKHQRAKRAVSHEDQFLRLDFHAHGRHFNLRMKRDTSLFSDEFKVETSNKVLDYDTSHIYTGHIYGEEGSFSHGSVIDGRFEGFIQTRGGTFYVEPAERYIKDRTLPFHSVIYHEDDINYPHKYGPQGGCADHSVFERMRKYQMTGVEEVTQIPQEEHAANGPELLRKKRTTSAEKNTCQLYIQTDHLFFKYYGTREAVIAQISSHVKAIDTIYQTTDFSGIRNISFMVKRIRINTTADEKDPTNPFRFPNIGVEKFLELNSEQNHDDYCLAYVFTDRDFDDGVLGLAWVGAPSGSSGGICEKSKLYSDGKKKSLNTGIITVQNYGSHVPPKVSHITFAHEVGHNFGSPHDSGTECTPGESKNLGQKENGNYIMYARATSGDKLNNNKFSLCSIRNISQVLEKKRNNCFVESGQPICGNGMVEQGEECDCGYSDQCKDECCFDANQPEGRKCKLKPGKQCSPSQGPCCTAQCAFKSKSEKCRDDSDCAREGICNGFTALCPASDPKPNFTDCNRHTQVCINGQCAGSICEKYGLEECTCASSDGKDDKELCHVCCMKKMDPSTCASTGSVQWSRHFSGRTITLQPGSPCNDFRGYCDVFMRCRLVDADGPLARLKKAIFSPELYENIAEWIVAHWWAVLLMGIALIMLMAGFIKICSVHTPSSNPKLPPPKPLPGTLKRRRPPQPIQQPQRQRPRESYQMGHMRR
QUANTITY_KIND: IC50 (nM)

Record excerpt, results attached:
[
  {
    "COMPOUND": "O=C(NO)[C@H]1CCCN[C@@H]1C(=O)N1CC[C@H](c2ccccc2)C1",
    "IC50 / nM": 480
  },
  {
    "COMPOUND": "O=C(NO)[C@H]1CC2(CC2)CN[C@@H]1C(=O)N1CC=C(c2ccccc2)C1",
    "IC50 / nM": 23
  },
  {
    "COMPOUND": "O=C(NO)[C@H]1CC2(CC2)CN[C@@H]1C(=O)N1CCC(c2ccccc2)CC1",
    "IC50 / nM": 320
  },
  {
    "COMPOUND": "Cc1cc([N+](=O)[O-])ccc1N1CCN(C(=O)[C@H]2NCC3(CC3)C[C@@H]2C(=O)NO)CC1",
    "IC50 / nM": 110
  },
  {
    "COMPOUND": "Cc1cc([N+](=O)[O-])ccc1C1=CCN(C(=O)[C@H]2NCC3(CC3)C[C@@H]2C(=O)NO)CC1",
    "IC50 / nM": 130
  }
]

A = CC1=C(c2ccccc2)CCN(C(=O)[C@H]2NCC3(CC3)C[C@@H]2C(=O)NO)C1
B = CN1CC2(CC2)C[C@H](C(=O)NO)[C@H]1C(=O)N1CCN(c2ccccc2)CC1
Request: Please state the entry with greater IC50 among A and B . Select an item and report its label.
Result: A

P = CN1CC2(CC2)C[C@H](C(=O)NO)[C@H]1C(=O)N1CC=C(c2ccccc2)CC1
Q = O=C(NO)[C@H]1CC2(CC2)CN[C@@H]1C(=O)N1CCN2c3ccccc3CC2C1 (stereo not given in full)
Request: Smaller IC50 value, P vs Q ? Select an item and report its label.
Result: P
(P: 77 nM, Q: 330 nM)

* * *

molecular target: 72 kDa type IV collagenase (Homo sapiens)
QUANTITY_KIND: IC50 (nM)

[
  {
    "CPD_SMILES": "CN1CC2(CC2)C[C@H](C(=O)NO)[C@H]1C(=O)N1CC=C(c2ccccc2)CC1",
    "TARGET_OF_ASSAY": "72 kDa type IV collagenase (Homo sapiens)",
    "UNIT_NAME": "nM",
    "IC50": 64
  },
  {
    "CPD_SMILES": "O=C(NO)[C@H]1CC2(CC2)CN[C@@H]1C(=O)N1CCC(c2ccccc2)CC1",
    "TARGET_OF_ASSAY": "72 kDa type IV collagenase (Homo sapiens)",
    "UNIT_NAME": "nM",
    "IC50": 450
  }
]

1 = CN1CC2(CC2)C[C@H](C(=O)NO)[C@H]1C(=O)N1CCN(c2ccccc2)CC1
2 = O=C(NO)[C@H]1CC2(CC2)CN[C@@H]1C(=O)N1CC[C@H](c2ccccc2)C1
Request: Please state the entry with greater IC50 among 1 and 2 . Select an item and report its label.
Result: 2

* * *

target: Stromelysin-1 (Homo sapiens); assay: Inhibition of MMP3
pIC50: −log10 of the molar value.
QUANTITY_KIND: pIC50

[
  {
    "COMPOUND": "O=C(NO)[C@H]1CC2(CC2)CN[C@@H]1C(=O)N1CCN2c3ccccc3CC2C1 (stereo partly drawn)",
    "TARGET_OF_ASSAY": "Stromelysin-1 (Homo sapiens)",
    "pIC50": "< 5.30"
  },
  {
    "COMPOUND": "O=C(NO)[C@H]1CC2(CC2)CN[C@@H]1C(=O)N1CC[C@H](c2ccccc2)C1",
    "TARGET_OF_ASSAY": "Stromelysin-1 (Homo sapiens)",
    "pIC50": "< 5.52"
  }
]

Request: // map O=C(NO)[C@H]1CC2(CC2)CN[C@@H]1C(=O)N1CCC(c2ccccc2)CC1 to recorded pIC50 (system: Stromelysin-1 (Homo sapiens))
Result: < 5.30
